biological target: Human IDO (Homo sapiens, UniProt P14902); assay: IDO enzyme inhibition assay (kynurenine formation, absorbance 492 nm); settings: recombinant human IDO; mean of n ≥ 3, ± SD
Sequence (P14902 whole entry): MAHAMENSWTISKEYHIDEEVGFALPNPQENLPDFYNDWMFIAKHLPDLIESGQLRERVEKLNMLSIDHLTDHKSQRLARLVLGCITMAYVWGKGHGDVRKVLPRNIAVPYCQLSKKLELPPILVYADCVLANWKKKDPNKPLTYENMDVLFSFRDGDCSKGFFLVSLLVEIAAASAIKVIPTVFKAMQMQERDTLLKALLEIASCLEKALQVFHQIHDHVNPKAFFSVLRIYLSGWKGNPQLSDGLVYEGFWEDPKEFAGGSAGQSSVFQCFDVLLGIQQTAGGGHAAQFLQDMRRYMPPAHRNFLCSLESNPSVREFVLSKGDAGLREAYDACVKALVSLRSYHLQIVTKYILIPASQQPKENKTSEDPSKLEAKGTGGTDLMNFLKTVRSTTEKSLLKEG
measured_quantity: IC50 (nM)
Could you give me the number in nM? Just the number is fine.

Reported IC50 for ON=C(Nc1ccc(F)c(Cl)c1)c1nonc1NCCF : what is it?
95.5

----------
test: Lipophilicity, shake-flask method (n-octanol/PBS pH 7.4); format: physicochemical; details: n-octanol/PBS; n-octanol/buffer pH 7.4, n=3; read-out: logD7.4
measured_quantity: logD
Answer using only a numeral; do not append any unit.

Reported logD for ON=C(Nc1ccc(F)c(Cl)c1)c1nonc1NCC[18F] [[^18F]IDO49] : what is it?
1.37
